In this section, each of the molecules is paired with its reported IC50 at 72 h.
TEST PROTOCOL: Cytotoxicity against HEK293 cells incubated for 72 hrs by MTT assay
CONDITION SET: human

# QUERY SMILES, IC50 at 72 h [µM]
rows = [
    ("Cc1cc2c(cc1Cl)SC(/N=C(/N)Nc1ccc(N3CCOCC3)cc1)=NS2(=O)=O", 70.1),
    ("Cc1cc2c(cc1Cl)SC(/N=C(/N)Nc1ccnc3cc(Cl)ccc13)=NS2(=O)=O", 65),
    ("Cc1cc2c(cc1Cl)SC(/N=C(/N)Nc1cnc3ccccn3c1=O)=NS2(=O)=O", 66.5),
    ("Cc1cc2c(cc1Cl)SC(/N=C(/N)Nc1cccc3cnccc13)=NS2(=O)=O", 72.2),
]
